Biological target: T1, H-2Db (mouse)
T1 chain 1: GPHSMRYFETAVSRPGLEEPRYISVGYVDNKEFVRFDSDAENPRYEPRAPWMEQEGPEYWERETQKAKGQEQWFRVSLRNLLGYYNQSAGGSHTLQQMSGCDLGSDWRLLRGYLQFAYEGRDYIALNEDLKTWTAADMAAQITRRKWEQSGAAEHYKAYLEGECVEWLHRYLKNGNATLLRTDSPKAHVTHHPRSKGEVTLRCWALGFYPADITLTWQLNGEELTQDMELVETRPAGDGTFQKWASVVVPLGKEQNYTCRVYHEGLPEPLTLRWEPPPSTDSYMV
T1 chain 2: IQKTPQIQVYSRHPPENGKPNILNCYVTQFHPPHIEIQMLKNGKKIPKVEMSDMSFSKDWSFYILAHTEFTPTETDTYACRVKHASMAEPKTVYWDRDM
Test: competition
Settings: modification not given
Recorded measurements of IC50, one per entry
READOUT: IC50

SHYAFSPM [F190.04] : > 88 µM
RGYVYQGL [1079.09] : > 44 µM
FQPQNGQFIHFY [928.15] : 0.28 µM
SIQFFGEL [F079.04] : > 44 µM
AAAAYAAAAM [F079.06] : > 44 µM
RNPRFYNL [1079.14] : > 44 µM

# credit: patent US9340577
